- Test system: Saccharomyces cerevisiae
- test-description: protein stability index of tFT-peptide fusion (C-terminal peptide) (PSI (0-1 scale)); higher = more stable (slower turnover);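 note: PSI is a weighted mean of sequencing reads over stability bins, variants kept only with over 10 reads, mCherry proximal and sfGFP distal, peptide attached via GGGS linker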
- experimental-setup: genetic background: cdc34-1; temperature: 37 C
Record form. Attribute: protein stability index. Fill in for each entry.
Numbers only.

| seq | protein stability index |
| --- | --- |
| SVMTFVFFISAF | 0.257 |
| LFWCCVGLSVWR | 0.367 |
| VVGVVVCWGRGW | 0.603 |
| WIYKIVTYEKKS | 0.701 |
| WCAGCLGWWLQS | 0.683 |

Each sequence below has a recorded value; state its protein stability index.
1. PVPERTSATEPP
2. PGWALLQLVFLK
3. KAEKNSKKTSTE
4. APGGRGAAGPSC
5. FSICGFYSLCFG
6. GGFLLRGLFLFL
7. WRLRIAAVVRSS
8. SLSPVFVAVWFL

A:
1. 0.61
2. 0.363
3. 0.685
4. 0.67
5. 0.569
6. 0.613
7. 0.556
8. 0.466

Each sequence below has a recorded value; state its protein stability index.
1. IFVLLSYYPLFV
2. PCTFYLFWMFFV
3. CASIVDGFAFRF
4. RSLSWCTKRRCC
5. SLLFVFVSVGCI

A:
[0.263, 0.417, 0.752, 0.595, 0.0483]

Q: State its protein stability index for this sequence: LIRDLLYMAVLV
A: 0.249

* * *

- Tested on: Saccharomyces cerevisiae
- test-description: protein stability index of tFT-peptide fusion (C-terminal peptide) (PSI (0-1 scale)); higher = more stable (slower turnover)
- experimental-setup: genetic background: das1 deletion; temperature: 37 C
Entry flag: rule met if protein stability index reaches 0.5; rule not met if it does not.

Some solved cases for reference:
| seq | cat |
| --- | --- |
| TLNKDILIIKCA | rule not met |
| GVRRRQLIWSVC | rule met |

Q: Hi, just wondering whether WVYVFVSLFFVV shows protein stability index of 0.5 or higher.
A: rule not met

Q: Hi, just wondering whether VWFGGLAVCCGG shows protein stability index of 0.5 or higher.
A: rule not met

Q: Hi, just wondering whether FCCWCVCFGYSG shows protein stability index of 0.5 or higher.
A: rule met

Q: Hi, just wondering whether GGMVRSCLWCFV shows protein stability index of 0.5 or higher.
A: rule met

* * *

- Test system: Saccharomyces cerevisiae
- test-description: protein stability index of tFT-peptide fusion (C-terminal peptide) (PSI (0-1 scale)); higher = more stable (slower turnover)
- experimental-setup: genetic background: wild type; temperature: 37 C
parameter: protein stability index
Answers are plain numbers.

| seq | target-system | protein stability index |
| --- | --- | --- |
| SWWGDVVWFVVC | Saccharomyces cerevisiae | 0.381 |

Each sequence below has a recorded value; state its protein stability index.
1. VLVLSFLYRMVK
2. FHRSVVRLWLRN
3. FFVLGPVVMSIH
4. FLMCVFFLCFSN
5. VFWLLVAVLRYW
6. LRFFLPFLLSLP

A:
0.436
0.181
0.405
0.325
0.325
0.292

Each sequence below has a recorded value; state its protein stability index.
1. YFFFFLHFNFAF
2. RSSGHLLDGRAF
3. PSLAASFWRVVG
4. FSICGFYSLCFG
5. GLLSLSGLRWFC
6. DGGHLVGHDLFY
7. GCVMSVCSLAVS

A:
1: 0.267; 2: 0.735; 3: 0.243; 4: 0.599; 5: 0.462; 6: 0.78; 7: 0.545

Each sequence below has a recorded value; state its protein stability index.
1. VFFLRVHFWSFF
2. WRLRIAAVVRSS
3. WCAVRVWFGAAL
4. FLIYMFRHCFFH
5. CRCLFVVKNWLS
6. LGLLIFQWARVL
7. GLYMCSVGCWFR
8. HSPPVPFPPPTS

A:
[0.246, 0.287, 0.561, 0.393, 0.293, 0.092, 0.252, 0.694]

Each sequence below has a recorded value; state its protein stability index.
1. SAVLFLLFVYVR
2. CAGRQGRERGHT
3. VVWVYSMLFSIW

A:
1. 0.176
2. 0.717
3. 0.415

* * *

- Test system: Saccharomyces cerevisiae
- test-description: protein stability index of tFT-peptide fusion (C-terminal peptide) (PSI (0-1 scale)); higher = more stable (slower turnover)
- experimental-setup: genetic background: doa10 deletion; temperature: 30 C
Entry flag: condition met if protein stability index reaches 0.3; condition not met if it does not.

Some solved cases for reference:
| seq | cat |
| --- | --- |
| SFTVFVVLLFPP | condition not met |
| LHRLRFTLVQVS | condition not met |
| FCIIVFYIFVGI | condition met |
| VVVVWVVVEIVR | condition not met |

Q: Hi, just wondering whether CAGRQGRERGHT shows protein stability index of 0.3 or higher.
A: condition met

Q: Hi, just wondering whether VIYNSALLLVRL shows protein stability index of 0.3 or higher.
A: condition met

Q: Hi, just wondering whether VLYLQCITSAGH shows protein stability index of 0.3 or higher.
A: condition met

Q: Hi, just wondering whether SRDSLLTLIPSC shows protein stability index of 0.3 or higher.
A: condition met

Q: Hi, just wondering whether ALVWYSLSIIVN shows protein stability index of 0.3 or higher.
A: condition not met

Q: Hi, just wondering whether VFHMFGWCGGAR shows protein stability index of 0.3 or higher.
A: condition met

Q: Hi, just wondering whether FTRWLVYCTPLC shows protein stability index of 0.3 or higher.
A: condition met

Q: Hi, just wondering whether YSVNSLFCKVFG shows protein stability index of 0.3 or higher.
A: condition met

Q: Hi, just wondering whether WVVWWFACVFGV shows protein stability index of 0.3 or higher.
A: condition not met

Q: Hi, just wondering whether KEKGVTKIRISS shows protein stability index of 0.3 or higher.
A: condition not met

Q: Hi, just wondering whether YILIKEVLYAVC shows protein stability index of 0.3 or higher.
A: condition not met

Q: Hi, just wondering whether WRVVVSCALHVC shows protein stability index of 0.3 or higher.
A: condition not met

Q: Hi, just wondering whether QRFASFFFLHLS shows protein stability index of 0.3 or higher.
A: condition not met

Q: Hi, just wondering whether PFGPTFSPRPFR shows protein stability index of 0.3 or higher.
A: condition met

Q: Hi, just wondering whether FCASCLVCFIYL shows protein stability index of 0.3 or higher.
A: condition met

Q: Hi, just wondering whether RFWFTFYLIAVF shows protein stability index of 0.3 or higher.
A: condition not met

Q: Hi, just wondering whether VFRLFFLLVWLV shows protein stability index of 0.3 or higher.
A: condition not met

Q: Hi, just wondering whether LLLFTPFYLLLR shows protein stability index of 0.3 or higher.
A: condition met

Q: Hi, just wondering whether YMNLYKNVISVT shows protein stability index of 0.3 or higher.
A: condition met

Q: Hi, just wondering whether GGVFYVFFVFVG shows protein stability index of 0.3 or higher.
A: condition not met

Q: Hi, just wondering whether VGYHCIVGVIFL shows protein stability index of 0.3 or higher.
A: condition met

* * *

- Tested on: Saccharomyces cerevisiae
- test-description: protein stability index of tFT-peptide fusion (C-terminal peptide) (PSI (0-1 scale)); higher = more stable (slower turnover)
- experimental-setup: genetic background: cdc34-1; temperature: 37 C
Labels assigned by protein stability index range: lo: < 0.3; mid: ≥ 0.3 and < 0.5; hi: ≥ 0.5

Some solved cases for reference:
| seq | target-system | cat |
| --- | --- | --- |
| AGGGGRFWVCVG | Saccharomyces cerevisiae | hi |
| VFRLLALLWRFF | Saccharomyces cerevisiae | hi |
| FCFCLVLRVFLG | Saccharomyces cerevisiae | lo |

Q: State the class of the sequence shown: YIFLLRFFFFFS
A: mid

Q: State the class of the sequence shown: FLCLLASFVVCF
A: mid

Q: State the class of the sequence shown: GCVMSVCSLAVS
A: hi

Q: State the class of the sequence shown: LRFSLLRVGWLC
A: hi

Q: State the class of the sequence shown: VLISLVLLFRCW
A: lo

Q: State the class of the sequence shown: LFLFFFLPPLLF
A: mid

Q: State the class of the sequence shown: LHRLRFTLVQVS
A: lo

Q: State the class of the sequence shown: PPPRSLSPPLLS
A: hi

* * *

- Tested on: Saccharomyces cerevisiae
- test-description: protein stability index of tFT-peptide fusion (C-terminal peptide) (PSI (0-1 scale)); higher = more stable (slower turnover)
- experimental-setup: genetic background: wild type; temperature: 30 C
Record form. Attribute: protein stability index. Fill in for each entry.
Answers are plain numbers.

| seq | value |
| --- | --- |
| GARHTALCCPMG | 0.623 |
| ARGDDGSTCSRG | 0.697 |

Each sequence below has a recorded value; state its protein stability index.
1. PATRFSPPSSLS
2. GGVGCLGVFSVG
3. TKRQKEKKKNKE
4. SISFSLPRPLPP

A:
1: 0.745; 2: 0.7; 3: 0.735; 4: 0.688

Each sequence below has a recorded value; state its protein stability index.
1. LGLPSSLGPSDF
2. WIRTCMLIQGQT
3. AHGASGNRSHNQ
4. ALVPPDPTPPPP
5. RKQQGDNHKGRG
6. DRNGAQAEISFV

A:
[0.682, 0.736, 0.644, 0.699, 0.706, 0.6]

Each sequence below has a recorded value; state its protein stability index.
1. GFGCVGSIFVIY
2. PSSPLLGPPPPD
3. FFACSLLFVLVF
4. LSRFGSTCPSGL
5. AYFGSCCCLPLG
6. KHRGAQRSRARH
7. SSSPFVSDFLTL

A:
1: 0.66; 2: 0.677; 3: 0.228; 4: 0.724; 5: 0.69; 6: 0.645; 7: 0.673
